target: UniProt P34972; test: Agonist activity at human recombinant cannabinoid CB2 receptor expressed in CHO cells at 10 uM by [35S]GTPgammaS binding assay; assay type: functional, cell-based
Sequence (P34972 whole entry): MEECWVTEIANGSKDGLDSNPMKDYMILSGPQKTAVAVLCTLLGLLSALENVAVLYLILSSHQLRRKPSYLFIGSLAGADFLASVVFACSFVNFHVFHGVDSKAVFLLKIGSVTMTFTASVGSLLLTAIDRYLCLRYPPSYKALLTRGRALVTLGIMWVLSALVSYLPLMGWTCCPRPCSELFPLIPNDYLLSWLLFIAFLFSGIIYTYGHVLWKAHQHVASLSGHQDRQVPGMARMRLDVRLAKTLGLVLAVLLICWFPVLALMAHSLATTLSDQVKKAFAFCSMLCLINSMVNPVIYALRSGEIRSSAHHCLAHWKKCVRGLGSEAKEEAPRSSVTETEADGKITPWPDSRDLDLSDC
Known Activity of a selection of molecules
Readout Kind: Activity (%)

1. c1ccc(Nc2ncc3ccccc3n2)cc1 ... 38
2. c1ccc2nc(N3CCOCC3)ccc2c1 ... 7
3. c1ccc2nc(NC3CCCC3)ccc2c1 ... 22
4. COc1cc(C(F)(F)F)ccc1Nc1ccc2ccccc2n1 ... 33
5. FC(F)(F)c1cccc(Nc2cnc3ccccc3n2)c1 ... 52
6. COc1ccccc1NC(=O)c1cnc(Nc2cccc(C(F)(F)F)c2)c2ccccc12 ... 1
7. Brc1cccc(Nc2ccc3ccccc3n2)c1 ... 64
8. FC(F)(F)c1cccc(Nc2ncc3ccccc3n2)c1 ... 53
9. O=C(NCC1CCCCC1)c1cc2ccccc2c(Nc2cccc(C(F)(F)F)c2)n1 ... -2
10. c1ccc2nc(NCC3CCCCC3)ccc2c1 ... 44
11. Clc1ccc(Nc2ccc3ccccc3n2)cc1 ... 75
12. CCCCCCNc1ccc2ccccc2n1 ... 10
13. Oc1ccc(Nc2ccc3ccccc3n2)cc1 ... 8

----------
biological target: Cannabinoid receptor 2 (Homo sapiens); experiment: Agonist activity at human recombinant cannabinoid CB2 receptor expressed in CHO cells by [35S]GTPgammaS binding assay relative to HU-210; assay type: functional, cell-based
Classify by Emax. Ranges: class 1 (below 60%), class 2 (60% to below 80%), class 3 (80% or more)

1) FC(F)(F)c1cccc(Nc2ccnc3ccccc23)c1 ... class 1
2) FC(F)(F)c1ccccc1Nc1ccc2ccccc2n1 ... class 3
3) FC(F)(F)c1cccc(Nc2ncc3ccccc3n2)c1 ... class 2
4) O=C(NCC1CCCCC1)c1cnc(Nc2cccc(C(F)(F)F)c2)c2ccccc12 ... class 2
5) COc1ccc(Nc2ccc3ccccc3n2)cc1 ... class 1
6) Clc1cccc(Nc2ccc3ccccc3n2)c1 ... class 2
7) c1ccc2nc(NC3CCCCC3)ccc2c1 ... class 3
8) COc1ccccc1Nc1ccc2ccccc2n1 ... class 3
9) FC(F)(F)c1cccc(Nc2ccc3ccccc3n2)c1 ... class 2

----------
target: Cannabinoid receptor 2 (Homo sapiens); test: Agonist activity at human recombinant cannabinoid CB2 receptor expressed in CHO cells at 10 uM by [35S]GTPgammaS binding assay; type: functional, cell-based
Readout Kind: Activity (%)

1) c1ccc(Nc2cnc3ccccc3n2)cc1 ... 30
2) N#Cc1cccc(Nc2ccc3ccccc3n2)c1 ... 25
3) O=C(NC1CCCCC1)c1cc2ccccc2c(Nc2cccc(C(F)(F)F)c2)n1 ... 13
4) O=C(NC1CCCCC1)c1cnc(Nc2cccc(C(F)(F)F)c2)c2ccccc12 ... 54
5) FC(F)(F)c1cccc(Nc2ccc3ccccc3n2)c1 ... 64
6) OCCc1ccc(Nc2ccc3ccccc3n2)cc1 ... 20
7) COc1cccc(Nc2ccc3ccccc3n2)c1 ... 50
8) FC(F)(F)c1cccc(Nc2ccnc3ccccc23)c1 ... 50
9) O=C(NCc1ccccc1)c1cnc(Nc2cccc(C(F)(F)F)c2)c2ccccc12 ... 21
10) c1ccc(Nc2ccc3ccccc3n2)cc1 ... 39
11) O=C(NCC1CCCCC1)c1cnc(Nc2cccc(C(F)(F)F)c2)c2ccccc12 ... 58
12) c1ccc(CNc2ccc3ccccc3n2)cc1 ... 20
13) c1ccc(Sc2ccc3ccccc3n2)cc1 ... 47
14) COc1ccc(Nc2ccc3ccccc3n2)cc1 ... 49
15) c1ccc(Oc2cnc3ccccc3c2)cc1 ... 17
16) c1ccc(Nc2nccc3ccccc23)cc1 ... 7
17) c1ccc(Cc2ccccc2Nc2ccc3ccccc3n2)cc1 ... 18
18) FC(F)(F)c1ccccc1Nc1nccc2ccccc12 ... 43
19) c1ccc(Sc2nccc3ccccc23)cc1 ... 33
20) c1ccc2nc(N3CCCCC3)ccc2c1 ... 10
21) CCOC(=O)c1ccc(Nc2ccc3ccccc3n2)cc1 ... 3
